experimental_system: Retinaldehyde dehydrogenase 3 (Homo sapiens) (UniProt P47895)
method_summary: qHTS for Inhibitors of the Aldehyde Dehydrogenase Family (ALDH1A3) Validation screen (AID 2061312); note: nearly all actives have a fitted effect of over 45% in size
condition_context: ALDH1A3 enzyme inhibition qHTS validation, fluorescence; series mostly up to 84.7 µM
Records with an inconclusive call do not appear. Activity calls are given as the source filed them. Calls come from the whole dose curve; as a rule, active = well fitted inhibition curve with a large enough effect; inconclusive = small, poorly fitted or top-dose-only effect; inactive = no such curve, though single readings can be large or run the other way.
Possible outcomes: active, inactive

compound	experimental_system	answer_label
c1ccc2c(c1)CC(N1CCN(c3cccc4c3OCCO4)CC1)C2	Retinaldehyde dehydrogenase 3 (Homo sapiens) (UniProt P47895)	inactive
CC(C)NC[C@H](O)c1ccc(O)c(O)c1	Retinaldehyde dehydrogenase 3 (Homo sapiens) (UniProt P47895)	inactive
CC(N)(Cc1ccc(O)cc1)C(=O)O (configuration not stated)	Retinaldehyde dehydrogenase 3 (Homo sapiens) (UniProt P47895)	inactive
Cc1cc(Cl)ccc1OCCCC(=O)NO	Retinaldehyde dehydrogenase 3 (Homo sapiens) (UniProt P47895)	inactive
COc1cncc(C#Cc2ccccn2)c1	Retinaldehyde dehydrogenase 3 (Homo sapiens) (UniProt P47895)	active
OC[C@H]1O[C@H](n2cnc3c(N[C@H]4CCC[C@@H]4O)ncnc32)[C@H](O)[C@@H]1O	Retinaldehyde dehydrogenase 3 (Homo sapiens) (UniProt P47895)	inactive
COc1ccccc1OCCNCC(O)COc1cccc2[nH]c3ccccc3c12 (configuration not stated)	Retinaldehyde dehydrogenase 3 (Homo sapiens) (UniProt P47895)	inactive
NC(=O)C1=CN(C2OC(COP(=O)(O)OP(=O)(O)OC[C@H]3O[C@@H](n4cnc5c(N)ncnc54)[C@H](OP(=O)(O)O)[C@@H]3O)C(O)C2O)C=CC1 (some centres not stated)	Retinaldehyde dehydrogenase 3 (Homo sapiens) (UniProt P47895)	inactive
O=[N+]([O-])c1cccc2cn[nH]c12	Retinaldehyde dehydrogenase 3 (Homo sapiens) (UniProt P47895)	inactive
CCNC(=O)CCC/C=C\C[C@@H]1[C@@H](/C=C/C(O)CCc2ccccc2)[C@@H](O)C[C@@H]1O (some centres not stated)	Retinaldehyde dehydrogenase 3 (Homo sapiens) (UniProt P47895)	inactive
O=C(O)C[C@@H](NC(=O)c1cc(-c2ccc(-c3ccncc3)cc2)cs1)c1ccccc1	Retinaldehyde dehydrogenase 3 (Homo sapiens) (UniProt P47895)	inactive
FC(F)(F)c1cc(C(F)(F)F)c2ccc3nc(-c4nnco4)cn3c2n1	Retinaldehyde dehydrogenase 3 (Homo sapiens) (UniProt P47895)	inactive
Clc1cccc(Cl)c1NC1=NCCN1	Retinaldehyde dehydrogenase 3 (Homo sapiens) (UniProt P47895)	inactive
NC1(C(=O)O)CCCCC1	Retinaldehyde dehydrogenase 3 (Homo sapiens) (UniProt P47895)	inactive
COc1ccccc1N1CCN(CCCCNC(=O)c2ccc3ccccc3c2)CC1	Retinaldehyde dehydrogenase 3 (Homo sapiens) (UniProt P47895)	inactive
CCOC(=O)C1=C(C)NC(C)=C(C(=O)OCC)C1c1c(F)c(F)c(F)c(F)c1F	Retinaldehyde dehydrogenase 3 (Homo sapiens) (UniProt P47895)	inactive
OCC1O[C@H](O)C(Cl)C(O)C1O (some centres not stated)	Retinaldehyde dehydrogenase 3 (Homo sapiens) (UniProt P47895)	inactive
CN(C)C1CCN(C(=O)c2ccc(NC(=O)Nc3ccc(-c4nc(N5CCOCC5)nc(N5CCOCC5)n4)cc3)cc2)CC1	Retinaldehyde dehydrogenase 3 (Homo sapiens) (UniProt P47895)	inactive
COC1(C2=NCCN2)COc2ccccc2O1 (configuration not stated)	Retinaldehyde dehydrogenase 3 (Homo sapiens) (UniProt P47895)	inactive
CC(=O)N[C@@H](CS)C(=O)O	Retinaldehyde dehydrogenase 3 (Homo sapiens) (UniProt P47895)	inactive
CN[C@H](CC(=O)O)C(=O)O	Retinaldehyde dehydrogenase 3 (Homo sapiens) (UniProt P47895)	inactive
C[C@@H](NC(=O)c1cc(C(=O)N[C@@H](Cc2ccccc2)[C@H](O)CNC2CC2)cc(N(C)S(C)(=O)=O)c1)c1ccccc1	Retinaldehyde dehydrogenase 3 (Homo sapiens) (UniProt P47895)	inactive

Reference source for all entries: PubChem BioAssay (NCATS)
